# Assay Target: 5-hydroxytryptamine receptor 2A (Homo sapiens) (UniProt P28223)
# Sequence (P28223 whole entry, looked up): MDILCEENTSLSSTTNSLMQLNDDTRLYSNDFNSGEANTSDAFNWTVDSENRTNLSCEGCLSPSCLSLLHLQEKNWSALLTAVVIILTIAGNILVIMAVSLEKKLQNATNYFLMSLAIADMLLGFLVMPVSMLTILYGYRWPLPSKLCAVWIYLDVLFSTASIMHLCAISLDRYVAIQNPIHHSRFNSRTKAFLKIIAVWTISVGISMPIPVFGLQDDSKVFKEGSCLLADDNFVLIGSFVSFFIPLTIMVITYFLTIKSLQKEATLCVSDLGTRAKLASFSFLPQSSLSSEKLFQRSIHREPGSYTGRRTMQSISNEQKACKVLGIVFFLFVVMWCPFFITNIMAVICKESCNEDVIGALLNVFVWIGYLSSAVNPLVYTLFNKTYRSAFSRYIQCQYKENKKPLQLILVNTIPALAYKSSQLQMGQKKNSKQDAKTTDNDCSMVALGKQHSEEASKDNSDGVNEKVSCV
# Assay Notes: 5-hydroxytryptamine receptor 2A (HTR2A) small molecule agonists, cell-based qHTS assay (AID 1963587); also: nearly all actives have a fitted effect of over 30% in size
# Particulars: HTR2A-CHO cells, calcium flux fluorescence, agonist mode; series mostly up to 76.8 µM
Inconclusive results are not listed. Active and inactive are the calls of the source. Calls follow the shape of the full dose curve. Square brackets hold non-standard residues; d marks the D form. Peptide text beside a SMILES is read from it. pGlu = O=C1CC[C@@H](C(=O)O)N1
Answer with one of the outcomes active, inactive

Compound: CCNC(=O)[C@@H]1CCCN1C(=O)[C@H](CCCN=C(N)N)NC(=O)[C@H](CC(C)C)NC(=O)CNC(=O)[C@H](Cc1ccc(O)cc1)NC(=O)[C@H](CO)NC(=O)[C@H](Cc1c[nH]c2ccccc12)NC(=O)[C@H](Cc1cnc[nH]1)NC(=O)[C@@H]1CCC(=O)N1 ([pGlu]HWSYGLRP-NHEt)
Category: inactive
--
Compound: O=CCCl
Category: inactive
--
Compound: CCCCCCC[CH2][Sn]([Cl])([Cl])[CH2]CCCCCCC
Category: inactive
--
Compound: C=C(Cl)CSC(=S)N(CC)CC
Category: inactive
--
Compound: Cc1cc(C(C)(C)c2cc(C)c(O)c(C)c2)cc(C)c1O
Category: active

What call does the record list for N#CN ?
inactive

Then what about the compound CSc1ccc(C(=O)C(C)(C)N2CCOCC2)cc1 ?
inactive

Now this one: CC1(C)COP(Oc2ccccc2)OC1
inactive

Next: CC(C)(Cl)[N+](=O)[O-]
inactive

Now consider ClCc1cccc(Cl)c1 .
inactive

Next compound up: CCNc1nc(Cl)nc(NC(C)(C)C)n1
inactive
